In what follows, each item is paired with its IC50 for GST-fused lck SH2 domain (Homo sapiens, UniProt P06239).

Parameter requested: IC50. Apply to each item below.
1. COC(=O)[C@H](Cc1ccc(O)c(O)c1)NC(=O)/C=C/c1ccc(O)c(O)c1
2. CC(C)OC(=O)[C@H](Cc1ccc(O)c(O)c1)NC(=O)/C=C/c1ccc(O)c(O)c1

output:
10 to 25 µM
10 to 25 µM

----------
# System: IL-2 promoter
# Assay Protocol: IL-2 promoter luciferase reporter assay in anti-CD3 activated Jurkat cells
# Format: cell-based
# Recorded Conditions: Homo sapiens, TCR-induced (anti-CD3) IL-2 promoter luciferase, 2 h pre-incubation
Assign pIC50 to each entry below.
Numbers only, as −log10 of the molar value.

input: Record request: pIC50 value, item COC(=O)[C@H](Cc1ccc(O)c(O)c1)NC(=S)/C=C/c1ccc(O)c(O)c1 [Example 22]
output: 4.86

Batch request: pIC50 per item, same order as input.
1. NC(=O)[C@H](Cc1ccc(O)c(O)c1)NC(=O)/C=C/c1ccc(O)c(O)c1 [Example 14]
2. O=C(O)[C@H](Cc1ccc(O)c(O)c1)NC(=S)/C=C/c1ccc(O)c(O)c1 [Example 23]
3. NC(=O)[C@H](Cc1ccc(O)c(O)c1)NC(=S)/C=C/c1ccc(O)c(O)c1 [Example 28]

output:
1. 5.16
2. 4.80
3. 4.85

Parameter requested: pIC50. Apply to each item below.
1. COC(=O)[C@H](Cc1ccc(O)c(O)c1)N(C)C(=O)/C=C/c1ccc(O)c(O)c1 [Example 36]
2. CC(C)OC(=O)[C@H](Cc1ccc(O)c(O)c1)NC(=S)/C=C/c1ccc(O)c(O)c1 [Example 26]

output:
4.82
4.73

Give me pIC50 for each of these compounds, listed below.
1. CC(C)(C)OC(=O)[C@@H](Cc1ccc(O)c(O)c1)OC(=O)/C=C/c1ccc(O)c(O)c1 [Example 56]
2. COC(=O)[C@H](Cc1ccc(O)cc1)NC(=O)/C=C/c1ccc(O)c(O)c1 [Example 47]
3. CCOC(=O)[C@H](Cc1ccc(O)c(O)c1)NC(=S)/C=C/c1ccc(O)c(O)c1 [Example 24]
4. CN(C(=O)/C=C/c1ccc(O)c(O)c1)[C@H](Cc1ccc(O)c(O)c1)C(=O)O [Example 30]

output:
[5.21, 4.68, 4.97, 4.80]

Here are 6 compounds. What values of pIC50 were reported for them?
1. CC(C)(C)OC(=O)[C@@H](Cc1ccc(O)c(O)c1)NC(=O)/C=C/c1ccc(O)c(O)c1 [Example 6]
2. COC(=O)C(Cc1ccc(O)c(O)c1)NC/C=C/c1ccc(O)c(O)c1 (stereo not shown) [Example 53]
3. COC(=O)[C@@H](Cc1ccc(O)c(O)c1)NC(=O)CCc1ccc(O)c(O)c1 [Example 52]
4. CN(C(=O)/C=C/c1ccc(O)c(O)c1)[C@@H](Cc1ccc(O)c(O)c1)C(=O)OC(C)(C)C [Example 41]
5. CCCOC(=O)[C@@H](Cc1ccc(O)c(O)c1)N(C)C(=O)/C=C/c1ccc(O)c(O)c1 [Example 32]
6. CC(C)OC(=O)[C@@H](Cc1ccc(O)c(O)c1)N(C)C(=O)/C=C/c1ccc(O)c(O)c1 [Example 33]

output:
1: 5.11; 2: 4.61; 3: 4.68; 4: 4.80; 5: 5.05; 6: 5.11

----------
pIC50: −log10 of the molar value.
Reported pIC50, GST-fused lck SH2 domain (Homo sapiens, UniProt P06239).

input: Value lookup for pIC50; key = CC(C)(C)OC(=O)[C@H](Cc1ccc(O)c(O)c1)NC(=O)/C=C/c1ccc(O)c(O)c1
output: 4.30 to 4.60

input: Endpoint output: pIC50 of CN(CCc1ccc(O)c(O)c1)C(=O)/C=C/c1ccc(O)c(O)c1 . Value?
output: 4.30 to 4.60

Batch request: pIC50 for each of the following compounds.
1. O=C(/C=C/c1ccc(O)c(O)c1)N[C@H](Cc1ccc(O)c(O)c1)C(=O)O
2. NC(=O)[C@H](Cc1ccc(O)c(O)c1)NC(=O)/C=C/c1ccc(O)c(O)c1
3. CC(C)NC(=O)[C@@H](Cc1ccc(O)c(O)c1)OC(=O)/C=C/c1ccc(O)c(O)c1

output:
1: > 5.00; 2: 4.60 to 5.00; 3: 4.30 to 4.60

----------
# Test system: IL-2 promoter
# Assay Protocol: IL-2 promoter luciferase reporter assay in anti-CD3 activated Jurkat cells
# Assay type: cell-based
# Recorded Conditions: Homo sapiens, TCR-induced (anti-CD3) IL-2 promoter luciferase, 2 h pre-incubation
pIC50: −log10 of the molar value.
Class Yes: pIC50 at least 5. Class No: pIC50 below 5.

Solved entries:
input: Say whether COC(=O)C(Cc1ccc(O)c(O)c1)NC(=O)c1ccc(O)c(O)c1 (centres unmarked) [Example 51] shows pIC50 of 5 or more.
output: No

input: Record CN(C(=O)/C=C/c1ccc(O)c(O)c1)[C@@H](Cc1ccc(O)c(O)c1)C(=O)O [Example 37] ; criterion: pIC50 no lower than 5. Met?
output: No

input: Kindly determine if pIC50 recorded for CC(C)NC(=O)[C@@H](Cc1ccc(O)c(O)c1)OC(=O)/C=C/c1ccc(O)c(O)c1 [Example 58] is above or exactly 5.
output: Yes

input: Has O=C(/C=C/c1ccc(O)c(O)c1)N[C@H](Cc1ccc(O)cc1)C(=O)O [Example 46] a recorded pIC50 greater than or equal to 5?
output: No

input: Determine whether this compound has pIC50 no lower than 5: CN(C(=O)/C=C/c1ccc(O)c(O)c1)[C@@H](Cc1ccc(O)c(O)c1)C(N)=O [Example 42]
output: No

input: Hi team, for COC(=O)C(Cc1ccc(O)c(O)c1)NC(=O)NCc1ccc(O)c(O)c1 (centres unmarked) [Example 49] , is the recorded pIC50 at or above 5?
output: No

Others:
input: Hello, I need to know if CCCOC(=O)[C@@H](Cc1ccc(O)c(O)c1)OC(=O)/C=C/c1ccc(O)c(O)c1 [Example 55] has measured pIC50 not below 5. Thanks!
output: Yes

input: # check: pIC50 of CN(CCc1ccc(O)c(O)c1)C(=O)/C=C/c1ccc(O)c(O)c1 [Example 44] is greater than or equal to 5
output: No

input: Check this compound for pIC50 at or above 5: COC(=O)[C@@H](Cc1ccc(O)c(O)c1)NC(=O)/C=C/c1ccc(O)c(O)c1 [Example 1]
output: Yes

----------
# System: IL-2 promoter
# Assay Protocol: IL-2 promoter luciferase reporter assay in anti-CD3 activated Jurkat cells
# Assay type: cell-based
# Recorded Conditions: Homo sapiens, TCR-induced (anti-CD3) IL-2 promoter luciferase, 2 h pre-incubation
# note: boundary value 10 µM maps to n; IC50 below it maps to y

input: Problem: For the molecule CCCOC(=O)[C@H](Cc1ccc(O)c(O)c1)NC(=S)/C=C/c1ccc(O)c(O)c1 [Example 25] , is IC50 under 10 µM?
output: y

---
input: Is IC50 strictly under 10 µM for the entry CC(C)OC(=O)[C@H](Cc1ccc(O)c(O)c1)N(C)C(=O)/C=C/c1ccc(O)c(O)c1 [Example 40] ?
output: y

input: Strictly below 10 µM: is that where IC50 of CN(C(=O)/C=C/c1ccc(O)c(O)c1)[C@H](Cc1ccc(O)c(O)c1)C(=O)OC(C)(C)C [Example 34] sits?
output: n

input: Threshold test, IC50 < 10 µM: CCOC(=O)[C@H](Cc1ccc(O)c(O)c1)N(C)C(=O)/C=C/c1ccc(O)c(O)c1 [Example 38]
output: n

input: I wonder whether CCCOC(=O)[C@H](Cc1ccc(O)c(O)c1)N(C)C(=O)/C=C/c1ccc(O)c(O)c1 [Example 39] has IC50 below 10 µM. Can you tell?
output: y

input: Decide: IC50 of O=C(/C=C/c1ccc(O)c(O)c1)N[C@H](Cc1ccc(O)c(O)c1)C(=O)O [Example 2] strictly below 10 µM?
output: n

input: Item CCOC(=O)[C@@H](Cc1ccc(O)c(O)c1)NC(=S)/C=C/c1ccc(O)c(O)c1 [Example 17] : IC50 beneath 10 µM, strictly?
output: y

input: is_below(IC50, 10 µM) for CC(C)(C)OC(=O)[C@H](Cc1ccc(O)c(O)c1)NC(=S)/C=C/c1ccc(O)c(O)c1 [Example 27] ?
output: n

----------
# Test system: IL-2 promoter
# Assay Protocol: IL-2 promoter luciferase reporter assay in anti-CD3 activated Jurkat cells
# Assay type: cell-based
# Recorded Conditions: Homo sapiens, TCR-induced (anti-CD3) IL-2 promoter luciferase, 2 h pre-incubation
Attribute Measured: IC50 (µM)
One number for each entry, in µM.

Answered examples (5):
input: Requested field: IC50. Item: CCCOC(=O)[C@@H](Cc1ccc(O)c(O)c1)NC(=S)/C=C/c1ccc(O)c(O)c1
output: 5.6

input: Please report the recorded IC50 for O=C(/C=C/c1ccc(O)c(O)c1)N[C@@H](Cc1ccc(O)cc1)C(=O)O .
output: 22.3

input: # get_value(readout='IC50', item= NC(=O)[C@@H](Cc1ccc(O)c(O)c1)NC(=S)/C=C/c1ccc(O)c(O)c1 )
output: 7.8

input: Fill in the blank: the reported IC50 of O=C(/C=C/c1ccc(O)c(O)c1)NCCc1ccc(O)c(O)c1 is ____.
output: 21.2

input: Can you share its IC50? I mean this compound: COC(=O)[C@@H](Cc1ccc(O)c(O)c1)N(C)C(=O)/C=C/c1ccc(O)c(O)c1
output: 7.6

Parameters: items (list). Returns: IC50 for each item.
1. COC(=O)[C@@H](Cc1ccc(O)c(O)c1)NC(=S)/C=C/c1ccc(O)c(O)c1
2. CCCOC(=O)[C@H](Cc1ccc(O)c(O)c1)NC(=O)/C=C/c1ccc(O)c(O)c1
3. COC(=O)C(Cc1ccc(O)c(O)c1)NC(=O)Cc1ccc(O)c(O)c1 (centres unmarked)
4. NC(=O)[C@@H](Cc1ccc(O)c(O)c1)NC(=O)/C=C/c1ccc(O)c(O)c1
5. CCOC(=O)[C@@H](Cc1ccc(O)c(O)c1)NC(=O)/C=C/c1ccc(O)c(O)c1
6. O=C(/C=C/c1ccc(O)c(O)c1)N[C@@H](Cc1ccc(O)c(O)c1)C(=O)O

output:
1. 17.1
2. 4.9
3. 18.6
4. 2.4
5. 4.8
6. 18.2
